Reported MIC values are given for each entry in this list.
System: Aspergillus fumigatus
Test: Antifungal activity against azole-resistant Aspergillus fumigatus V45/07-CM3819 isolate from patient with chronic granulomatous disease by broth microdilution susceptibility test
Assay type: functional
Provide the reading as a plain figure in µg/mL.

Some compounds with known MIC results, for comparison:
C[C@@H]1[C@H](O)[C@@H](C)/C=C/C=C/C=C/C=C/C=C/C=C/C=C/[C@H](O[C@@H]2O[C@H](C)[C@@H](O)[C@H](N)[C@@H]2O)C[C@@H]2O[C@](O)(C[C@@H](O)C[C@@H](O)[C@H](O)CC[C@@H](O)C[C@@H](O)CC(=O)O[C@H]1C)C[C@H](O)[C@H]2C(=O)O
0.25
CC[C@@H]([C@H](C)O)n1ncn(-c2ccc(N3CCN(c4ccc(OC[C@@H]5CO[C@@](Cn6cncn6)(c6ccc(F)cc6F)C5)cc4)CC3)cc2)c1=O
1

Give Aspergillus fumigatus MIC for the following compound: C[C@@H](c1nc(-c2ccc(C#N)cc2)cs1)[C@](O)(Cn1cncn1)c1ccc(F)cc1F 8

---

Test system: Aspergillus fumigatus
Assay: Antifungal activity against azole-resistant Aspergillus fumigatus V41/26-CM3820 isolate from patient with pulmonary fibrosis by broth microdilution susceptibility test
Type: functional
Item-by-item account of MIC

Consider the following illustrative entries.
CCC(C)n1ncn(-c2ccc(N3CCN(c4ccc(OCC5COC(Cn6cncn6)(c6ccc(Cl)cc6Cl)O5)cc4)CC3)cc2)c1=O (stereo not given) [ITRACONAZOLE]
> 8 µg/mL
C[C@@H](c1nc(-c2ccc(C#N)cc2)cs1)[C@](O)(Cn1cncn1)c1ccc(F)cc1F [RAVUCONAZOLE]
4 µg/mL
C[C@@H]1[C@H](O)[C@@H](C)/C=C/C=C/C=C/C=C/C=C/C=C/C=C/[C@H](O[C@@H]2O[C@H](C)[C@@H](O)[C@H](N)[C@@H]2O)C[C@@H]2O[C@](O)(C[C@@H](O)C[C@@H](O)[C@H](O)CC[C@@H](O)C[C@@H](O)CC(=O)O[C@H]1C)C[C@H](O)[C@H]2C(=O)O [AMPHOTERICIN B]
0.25 µg/mL
C[C@@H](c1ncncc1F)[C@](O)(Cn1cncn1)c1ccc(F)cc1F [VORICONAZOLE]
4 µg/mL

Next compound, MIC to be filled in.
Provide only the value of recorded MIC for CC[C@@H]([C@H](C)O)n1ncn(-c2ccc(N3CCN(c4ccc(OC[C@@H]5CO[C@@](Cn6cncn6)(c6ccc(F)cc6F)C5)cc4)CC3)cc2)c1=O [POSACONAZOLE] 0.5 µg/mL

---

Reported MIC by item:
Test system: Aspergillus fumigatus
Assay: Antifungal activity against azole-resistant Aspergillus fumigatus V34/78-CM3279 isolate from patient with hyper-immunoglobulin E syndrome by broth microdilution susceptibility test
Format: functional
The reply should be a number in µg/mL, with the unit left off.

C[C@@H]1[C@H](O)[C@@H](C)/C=C/C=C/C=C/C=C/C=C/C=C/C=C/[C@H](O[C@@H]2O[C@H](C)[C@@H](O)[C@H](N)[C@@H]2O)C[C@@H]2O[C@](O)(C[C@@H](O)C[C@@H](O)[C@H](O)CC[C@@H](O)C[C@@H](O)CC(=O)O[C@H]1C)C[C@H](O)[C@H]2C(=O)O [AMPHOTERICIN B]
0.25
CC[C@@H]([C@H](C)O)n1ncn(-c2ccc(N3CCN(c4ccc(OC[C@@H]5CO[C@@](Cn6cncn6)(c6ccc(F)cc6F)C5)cc4)CC3)cc2)c1=O [POSACONAZOLE]
0.5
C[C@@H](c1ncncc1F)[C@](O)(Cn1cncn1)c1ccc(F)cc1F [VORICONAZOLE]
2

# input for lookup
Item C[C@@H](c1nc(-c2ccc(C#N)cc2)cs1)[C@](O)(Cn1cncn1)c1ccc(F)cc1F [RAVUCONAZOLE] : provide MIC 4
